Biological target: human DGAT2 (hDGAT2) (Homo sapiens)
Construct: made in house; host or cells: Sf-9 insect cells (baculovirus), membrane fraction
Sequence (Q96PD7 1-388): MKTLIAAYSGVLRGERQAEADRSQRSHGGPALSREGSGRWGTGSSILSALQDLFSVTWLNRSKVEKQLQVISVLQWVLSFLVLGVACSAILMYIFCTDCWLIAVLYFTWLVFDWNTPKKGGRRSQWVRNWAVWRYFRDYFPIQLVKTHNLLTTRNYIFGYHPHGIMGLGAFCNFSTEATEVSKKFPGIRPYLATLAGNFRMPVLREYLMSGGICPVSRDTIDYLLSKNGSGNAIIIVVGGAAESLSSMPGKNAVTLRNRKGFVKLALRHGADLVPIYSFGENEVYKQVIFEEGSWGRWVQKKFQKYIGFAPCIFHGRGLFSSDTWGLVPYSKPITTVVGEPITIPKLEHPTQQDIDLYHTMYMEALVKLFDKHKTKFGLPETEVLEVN
Experiment: DGAT2 Enzymatic Activity Assay
Assay type: biochemical
Details: membrane prep of Sf-9 cells expressing hDGAT2; 25 μM diolein, 5 μM 13C oleoyl-CoA; 13C18-triolein by LC/MS/MS; read-out: Human DGAT2 IC50
pIC50: −log10 of the molar value.
Use 8 as the dividing line for pIC50, with the line itself on the YES side and lower values as NO.

CCOc1cc(-n2c(=O)n(C(C)C)c3cc(C(=O)NC4(C)CS(=O)(=O)C4)c(F)cc32)c(F)cn1 = NO
CC(C)n1c(=O)n(-c2cc(OC(F)F)ccc2F)c2ccc(C(=O)NC3(C)CCS(=O)(=O)CC3)cc21 = YES
CC(C)n1c(=O)n(-c2cc(OC(F)F)ncc2F)c2ccc(C(=O)NC3(C)CCS(=O)(=O)CC3)cc21 = NO
CC(C)n1c(=O)n(-c2cccc(OC(F)F)c2)c2ccc(C(=O)NC3(C)CS(=O)(=O)C3)nc21 = NO
C[C@@]1(NC(=O)c2ccc3c(c2)n(-c2ccc(F)cc2)c(=O)n3-c2ccc(F)cc2)CCS(=O)(=O)C1 = NO
CC(C)Oc1cccc(-n2c(=O)n(C(C)C)c3cc(C(=O)NC4(C)CS(=O)(=O)C4)ccc32)c1 = NO

[ask] Determine whether measured pIC50 meets or exceeds 8 for CC(C)n1c(=O)n(-c2cc(OCC(F)F)ncc2F)c2cc(F)c(C(=O)NC3(C)CCS(=O)(=O)CC3)cc21
[reply] YES

[ask] Determine whether measured pIC50 meets or exceeds 8 for CC(C)n1c(=O)n(-c2cccc(OC(F)(F)C(F)F)c2)c2ncc(C(=O)NC3(C)CCS(=O)(=O)CC3)cc21
[reply] NO

[ask] Determine whether measured pIC50 meets or exceeds 8 for CC(C)n1c(=O)n(-c2cccc(OC(F)F)c2)c2ccc(C(=O)NC3(C)CCS(=O)(=O)CC3)cc21
[reply] NO

[ask] Determine whether measured pIC50 meets or exceeds 8 for CC(n1c(=O)n(-c2cc(OC(F)F)ccc2F)c2ccc(C(=O)NC3(C)CS(=O)(=O)C3)cc21)C(C)(C)O (single isomer, unassigned) [EX-65b]
[reply] YES

###

Molecular target: human DGAT2 (hDGAT2) (Homo sapiens, UniProt Q96PD7)
Construct: made in house; host or cells: Sf-9 insect cells (baculovirus), membrane fraction
Test: DGAT2 Enzymatic Activity Assay
Format: biochemical
Conditions: membrane prep of Sf-9 cells expressing hDGAT2; 25 μM diolein, 5 μM 13C oleoyl-CoA; 13C18-triolein by LC/MS/MS; read-out: DGAT2 IC50
Reported values of IC50 for individual entries
State just the number; it will be interpreted in nM.

CC(C(F)F)n1c(=O)n(-c2cccc(OC(F)F)c2)c2ccc(C(=O)NC3(C)CCS(=O)(=O)CC3)cc21 (single isomer, unassigned) [Example 45b] = 101

[ask] Report IC50 for CCOc1cc(-n2c(=O)n(C(C)C)c3cc(C(=O)NC4(C)CS(=O)(=O)C4)c(F)cc32)c(F)cn1 [Example 116] please.
[reply] 93

[ask] Report IC50 for CC(C)[C@@H](CO)NC(=O)c1ccc2c(c1)n(C(C)C)c(=O)n2-c1cccc(OC(F)F)c1 [Example 34] please.
[reply] 62

[ask] Report IC50 for CC(n1c(=O)n(-c2cc(OCC(F)F)ccc2F)c2ccc(C(=O)NC3(C)CCS(=O)(=O)CC3)cc21)C(C)(C)O (single isomer, unassigned) [Example 73a] please.
[reply] 2.6

[ask] Report IC50 for CC1(NC(=O)c2ccc3c(c2)n(C2CCOCC2)c(=O)n3-c2cccc(OC(F)F)c2)CS(=O)(=O)C1 [Example 36] please.
[reply] 19.4

[ask] Report IC50 for CC(n1c(=O)n(-c2cc(OC(F)(F)F)ccc2F)c2ccc(C(=O)NC3(C)CCS(=O)(=O)CC3)cc21)C(C)(C)O (single isomer, unassigned) [Example 71a] please.
[reply] 71

[ask] Report IC50 for CC1(NC(=O)c2ccc3c(c2)n(C2CC2)c(=O)n3-c2cccc(OC(F)F)c2)CCS(=O)(=O)CC1 [Example 41] please.
[reply] 211

[ask] Report IC50 for CC1(NC(=O)c2ccc3c(c2)n(CC(F)(F)F)c(=O)n3-c2cccc(OC(F)F)c2)CCS(=O)(=O)CC1 [Example 44] please.
[reply] 87

[ask] Report IC50 for CCn1c(=O)n(-c2cccc(OC(F)F)c2)c2ccc(C(=O)NC3(C)CCS(=O)(=O)CC3)cc21 [Example 39] please.
[reply] 109

[ask] Report IC50 for CC(C)n1c(=O)n(-c2cccc(OC(F)F)c2)c2cc(F)c(C(=O)N[C@]3(C)CCS(=O)(=O)C3)cc21 [Example 113] please.
[reply] 78

[ask] Report IC50 for CC1(NC(=O)c2ccc3c(c2)n(Cc2ccc(F)cc2)c(=O)n3-c2cccc(OC(F)F)c2)CCS(=O)(=O)CC1 [Example 59] please.
[reply] 38
